assay-readout: melting point

Some entries whose results are on file:
CCCCCCc1ccc(C(=O)N2CCOCC2)cc1[N+](=O)[O-]: 68.5 to 71.5 °C
O=C1CCOc2cc(OCc3ccccc3)c(F)cc21: 155 to 156 °C
Cc1cc(C)c(C=O)c(O)c1: 46 to 48 °C
CCOC(=O)C(C(=O)Nc1ccc(Br)cc1C)=S(C)C: 146 to 149 °C
O=C(O)c1ccc(CO)cc1O: 179 to 180 °C
CCCCc1nn(-c2cc([N+](=O)[O-])ccc2Cl)c(C(N)=O)c1Cc1ccc(Br)cc1F: 145 to 147 °C
COc1ccc(C(=O)N2CCCC2=O)cc1: 120 °C
CCNC(=O)Nc1nc2cc(OCc3ccccc3)cc(Br)c2s1: 294 °C
COc1cc(-c2c(C)c3cc(O)ccc3n2Cc2ccc(OCCN3CCCCC3)cc2)ccc1O: 161 to 163 °C
CCCCc1ccc(CCCCC(NC(C)=O)(C(=O)OCC)C(=O)OCC)cc1: 60 to 61 °C

Just so you know, measured melting point for COC(CN(C)c1nccc(Oc2ccc(NC(=O)c3cc(F)cc(N4CCCCC4)c3)c3ccccc23)n1)OC came out at 135 to 136 °C

Just so you know, measured melting point for Cn1c(=O)c(C#N)c(N2CCN(C(=O)c3ccco3)CC2)c2cc(Cl)ccc21 came out at 228 °C

* * *

melting point by entry:

COc1ccc2c(c1)C(=NOCCCN)c1c-2c(N2CCNCC2)nc2ccccc12: 89 to 90 °C
CC12CCC(=O)C=C1CCC1C2CCC2(C)C(C(F)F)CCC12 (stereo not given): 137 to 140 °C
CNS(=O)(=O)c1cccc(OC)c1C#N: 121 to 128 °C
CS(=O)(=O)N1CC2(COc3cc4c(cc32)OCO4)c2ccccc21 (stereo not given): 215 to 217 °C
Cc1ccc2c(c1)N(CC(=O)c1cccs1)C(=O)C(NC(=O)Nc1cccc(C(=O)O)c1)CN2C(=O)c1cccs1 (stereo not given): > 290 °C

Just so you know, measured melting point for CCOC(=O)c1[nH]nc(C)c1[N+](=O)[O-] came out at 81 to 86 °C

Just so you know, measured melting point for ON=Cc1ccc(Sc2ccccc2)cc1 came out at 74 to 76 °C

Just so you know, measured melting point for Nc1nccnc1-c1cc(Cl)cc(Cl)c1Cl came out at 142 to 143 °C

Just so you know, measured melting point for CCCCCS(=O)(=O)NC(=O)/C=C/c1ccc(OCCC(C)=O)cc1Oc1ncc(C(F)(F)F)cc1Cl came out at 180 to 181 °C

Just so you know, measured melting point for COc1ccc(C=CCC#N)cc1 came out at 75 to 76 °C

* * *

melting point by entry:
Quick reminder: number only, in °C, skip the unit.

Cc1c(C(=O)O)cnn1-c1ccc(Cl)c(Cl)c1: 188
O=C(O)Cc1ccc(CNC(=O)C2Cc3ccccc3N2S(=O)(=O)c2ccc(-c3ccc(F)cc3Cl)cc2)cc1 (configuration not stated): 119

Just so you know, measured melting point for CC(CNS(=O)(=O)C(C)C)c1ccc(NC(=O)CCl)cc1 (configuration not stated) came out at 138

* * *

melting point by entry:

Some entries whose results are on file:
COC(=O)CS(=O)(=O)NOC[C@@H]1NC(=O)[C@@H]1NC(=O)OC(C)(C)C (relative stereo): 128 to 129 °C
CC(=O)NNc1ccc(Cl)c(CN2OCC(C)(C)C2=O)c1: 178 to 180 °C
Cc1ccc(-c2nc3ccccc3o2)cc1: 113 to 114 °C
O=C(O)C1c2ccccc2C=Cc2ccccc21: 244 to 245 °C
CCC1(CCCCN2CCN(c3ccc(Cl)cc3)CC2)C(=O)Nc2ccccc21 (configuration not stated): 145 to 146 °C

Now take the following compound into account.
Just so you know, measured melting point for N=C1CCCN1Cc1ccc(Cl)nc1 came out at 166 °C

* * *

melting point by entry:

Some entries whose results are on file:
Oc1ccc(Nc2cnc3cc(Cl)ccc3c2)cc1: 218 °C
O=C1c2ccccc2C(=O)N1CCc1cc(Br)cs1: 115 to 117 °C
CCCN(CCO)C(=O)c1ccc(C(=O)N2CCN(c3ncccc3NC(C)C)CC2)cc1: 79 to 82 °C
CCOc1cccc(F)c1C1OC(=O)NC1=O (stereo unspecified): 127 to 128 °C

Just so you know, measured melting point for CCOC(=O)C1=C(N)NC(C)=C(C(=O)O)C1c1ccccc1-c1ccccc1 (stereo unspecified) came out at 182 °C

Just so you know, measured melting point for Cc1cc(=O)c(OCc2ccccc2)c(C(=O)NC2CCCCC2)n1C came out at 258 to 260 °C

Just so you know, measured melting point for O=C1CC(c2cccc(-c3noc(CCCO)n3)c2)=Nc2ccc(-c3ccc(F)cc3)cc2N1 came out at 220 to 222 °C

Just so you know, measured melting point for CCOC(=O)C(CC(F)(F)CC(C)C1CCC2C3CC=C4CC(OC5CCCCO5)CCC4(C)C3CCC12C)C(=O)OCC (stereo unspecified) came out at 79 to 80 °C

Just so you know, measured melting point for O=C1CCCCCC1n1nc(-c2c(-c3ccccc3)nn3ccccc23)ccc1=O (stereo unspecified) came out at 112 to 114 °C

Just so you know, measured melting point for CN(Cc1cc(C(F)(F)F)cc(C(F)(F)F)c1)C(=O)c1c(-c2ccc(F)cc2)c2nccnc2c(=O)n1C came out at 220 to 222 °C

Just so you know, measured melting point for Clc1ccc(C(Cn2ccnc2)SCCC=Cc2ccccc2)c(Cl)c1 (stereo unspecified) came out at 111 to 113 °C

Just so you know, measured melting point for O=C(Cl)c1cn(CCCCl)c(=O)c2ccccc12 came out at 101 °C

* * *

assay-readout: melting point

Some entries whose results are on file:
Cc1oc(-c2ccccc2)nc1COc1ccc(Cn2cc(CCC(=O)O)c(Oc3ccc(C(F)(F)F)cn3)n2)cc1: 107 to 108 °C
CC(C)(C)OC(=O)N1CCCC(Nc2cc(Cl)n[nH]c2=O)C1 (stereo not drawn): 195 to 196 °C
CCOC(=O)C(=O)Cc1ncc([N+](=O)[O-])n1C: 141 °C

Just so you know, measured melting point for COc1ccc(N2CCN(c3ccc(N)cc3)CC2)cn1 came out at 111 °C

Just so you know, measured melting point for C=CCc1cc2c(c(CC=C)c1O)CCC(=O)N2Cc1ccc(C(=O)O)cc1 came out at 242 to 246 °C

Just so you know, measured melting point for C(=C\c1nc(COc2ccc(CCCCCCn3cncn3)cc2)co1)/c1ccccc1 came out at 90 to 91 °C

Just so you know, measured melting point for CC(C)(C)CC(=Cc1ccc(Cl)cc1)Cn1cncn1 came out at 81 to 84 °C

Just so you know, measured melting point for COc1ccc(NC(=O)c2ccccc2N)cc1 came out at 116 to 117 °C

Just so you know, measured melting point for CC1(C)SC2C(NC(=O)Nc3ccccc3)C(=O)N2C1c1nnn[nH]1 (stereo not drawn) came out at 110 to 120 °C

Just so you know, measured melting point for Cc1[nH]cnc1CSCCN(C)C(N)=S came out at 149 to 151 °C

Just so you know, measured melting point for CCCc1c(OCCCOc2ccc3c(c2CCC)OC(C)(CCC(=O)OC)CC3)ccc(C(C)=O)c1O (stereo not drawn) came out at 53 to 55 °C

Just so you know, measured melting point for CN1C(=O)CC[C@]2(C)c3ccc(-c4ccc(Cl)c(Cl)c4)cc3CC[C@@H]12 came out at 129 to 135 °C

Just so you know, measured melting point for O=c1cc(-c2ccc(OCCOc3ccc(-c4cc(=O)c5c(O)cc(O)cc5o4)cc3)cc2)oc2cc(O)cc(O)c12 came out at 352 to 355 °C

* * *

melting point by entry:

Just so you know, measured melting point for O=C(Nc1ccccc1F)OC1CN2CCC1CC2 (stereo not given) came out at 124 to 126 °C

Just so you know, measured melting point for Cc1cc(Cl)cc(C(=O)NC2(C)CC2)c1NC(=O)c1cc(Br)nn1-c1ncccc1Cl came out at > 250 °C

Just so you know, measured melting point for CSC(=C[N+](=O)[O-])NCCSCc1ccsn1 came out at 64.5 to 65.5 °C

Just so you know, measured melting point for O=C(O)c1nc2n(n1)-c1cccnc1N(c1ccc(Cl)cc1)C2 came out at 234 to 237 °C

Just so you know, measured melting point for COc1cccc(Cl)c1C1Cc2c(ccn2C)C2C(=O)NC(=O)C12 (stereo not given) came out at 186 to 188 °C

* * *

melting point by entry:

Some entries whose results are on file:
Nc1ccc2c(=O)n(-c3ccccc3)c(=O)n(-c3ccccc3)c2n1: 162 to 163 °C
O=C1NC(CCN2CCC(C(=O)c3ccc(F)cc3)CC2)Nc2ccccc21 (configuration not stated): 153 °C
CCc1c(C(=O)O)oc2ccc(Br)cc12: 240 to 242 °C
COc1c(OCC(F)(F)F)ccnc1CO: 107 to 108 °C
CC1(C)CCC(C)(C)c2cc(C(N)C(=O)Nc3ccc(C(=O)O)cc3)ccc21 (configuration not stated): 203 to 204 °C

Just so you know, measured melting point for CC(=O)Nc1ccc(-n2ccnc2SCc2ccccc2N2CCOCC2)nc1 came out at 164 to 167 °C

Just so you know, measured melting point for CCOc1nn(Cc2ccc(OCc3nc(-c4cccs4)oc3C)cc2)cc1CCC(=O)O came out at 156 to 157 °C

Where do the numbers come from? From a melting point compilation (Tetko et al.; mined from patent text by program, amines drawn as free bases though some values may be those of a salt).
